target-under-test: human P2X2/3 receptor (Homo sapiens, UniProt P56373+Q9UBL9)
Construct: expressed in transfected cells; host or cells: CHO-K1
Sequence (Q9UBL9 whole entry): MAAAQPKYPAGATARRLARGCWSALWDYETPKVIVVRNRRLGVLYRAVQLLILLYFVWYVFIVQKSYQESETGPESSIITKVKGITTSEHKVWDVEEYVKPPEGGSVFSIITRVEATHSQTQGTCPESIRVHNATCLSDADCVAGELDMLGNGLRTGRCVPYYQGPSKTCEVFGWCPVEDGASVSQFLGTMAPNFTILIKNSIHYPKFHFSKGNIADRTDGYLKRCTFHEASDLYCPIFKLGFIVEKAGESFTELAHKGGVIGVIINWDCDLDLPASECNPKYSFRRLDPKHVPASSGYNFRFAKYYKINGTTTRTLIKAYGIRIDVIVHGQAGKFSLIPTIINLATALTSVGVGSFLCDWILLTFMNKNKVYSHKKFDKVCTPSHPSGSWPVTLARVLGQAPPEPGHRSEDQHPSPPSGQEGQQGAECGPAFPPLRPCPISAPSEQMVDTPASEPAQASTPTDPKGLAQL
Sequence (P56373 whole entry): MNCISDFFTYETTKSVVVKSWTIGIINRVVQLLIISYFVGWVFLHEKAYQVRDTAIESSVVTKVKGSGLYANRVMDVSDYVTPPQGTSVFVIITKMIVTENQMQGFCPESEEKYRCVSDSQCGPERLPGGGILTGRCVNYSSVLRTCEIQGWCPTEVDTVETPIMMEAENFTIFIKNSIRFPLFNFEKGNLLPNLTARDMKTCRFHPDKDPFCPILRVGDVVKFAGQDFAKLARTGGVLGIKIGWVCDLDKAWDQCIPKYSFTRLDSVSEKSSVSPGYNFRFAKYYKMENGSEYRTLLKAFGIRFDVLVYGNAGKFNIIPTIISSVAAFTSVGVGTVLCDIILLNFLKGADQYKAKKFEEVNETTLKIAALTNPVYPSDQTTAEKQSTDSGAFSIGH
assay-info: P2X2/3 FLIPR (Fluorometric Imaging Plate Reader) assay
Type: cell-based
measurement-conditions: CHO-K1 cells transfected with human P2X2/3; agonist α,β-meATP 5 μM; FLIPR calcium fluorescence; read-out: pKi P2X2/3 (converted)
The recorded Ki of each item maps onto one of these classes: low range = under 30 nM, mid range = from 30 nM up to 100 nM, high range = 100 nM and over

{"compound": "Cc1ccc(-c2cc(C(=O)NC(C)c3cnccn3)cc(-n3c(=O)oc4ccccc43)c2)nc1 (stereo not shown) [Compound 2]", "target-under-test": "human P2X2/3 receptor (Homo sapiens, UniProt P56373+Q9UBL9)", "answer-label": "low range"}

**Q:** Which class is correct for the following compound? Cc1ccc(-c2cc(C(=O)NCc3cnc(C)cn3)cc(N3C(=O)OC[C@H]3C(C)C)c2)nc1 [Compound 11]
**A:** low range

**Q:** State the band of Cc1ccc(-c2cc(C(=O)NCc3ccc(C)nn3)cc(N3C(=O)OCC3(C)C)c2)nc1 [Compound 31]
**A:** mid range

**Q:** Exercise: read the entry Cc1ccc(-c2cc(C(=O)NC(C)c3cnccn3)cc(-n3c(=O)oc4ccccc43)c2)cc1 (stereo not shown) [Compound 50] and state which class it falls under.
**A:** low range

**Q:** Hey, which category is Cc1ccc(-c2cc(C(=O)NC(C)c3cnccn3)cc(N3C(=O)OCC3(C)C)c2)nc1 (stereo not shown) [Compound 20] in, do you know?
**A:** high range

**Q:** Which class holds Cc1ccc(-c2cc(C(=O)NCc3cnc(C)cn3)cc(N3C(=O)CCC3C)c2)nc1 (stereo not shown) [Compound 28] ?
**A:** high range

**Q:** # classify by Ki band: Cc1ccc(-c2cc(C(=O)NC(C)c3cnccn3)cc(N3C(=O)CCC3C)c2)nc1 (stereo not shown) [Compound 27]
**A:** high range

**Q:** Record Cc1ccc(-c2cc(C(=O)NC(C)c3cnccn3)cc(N3C(=O)Cc4ccccc43)c2)cc1 (stereo not shown) [Compound 54] — which class?
**A:** high range

---

target-under-test: human P2X2/3 receptor (Homo sapiens, UniProt P56373+Q9UBL9)
Construct: expressed in transfected cells; host or cells: CHO-K1
assay-info: P2X2/3 FLIPR (Fluorometric Imaging Plate Reader) assay
Type: cell-based
measurement-conditions: CHO-K1 cells transfected with human P2X2/3; agonist α,β-meATP 5 μM; FLIPR calcium fluorescence; read-out: pKi P2X2/3 (converted)
Procedure: CHO-K1 cells were transfected with cloned rat P2X3 or human P2X2/3 receptor subunits and passaged in flasks. […] Test compounds (dissolved in DMSO at 10 mM and serially diluted with FB) or vehicle were added to each well (25 μl of a 4× solution) and allowed to equilibrate for 20 minutes at room temperature. […] Fluorescence was measured for an additional 2 minutes at 1 second intervals after agonist addition. […]
What Ki was measured for each of the following?
Write the numeric value and follow it with the unit.

{"compound": "Cc1ccc(-c2cc(C(=O)NCc3cnc(C)cn3)cc(N3C(=O)OC[C@H]3C(C)C)c2)c(F)c1 [Compound 48]", "experimental-value": "38 nM"}
{"compound": "CCC1COC(=O)N1c1cc(C(=O)N[C@@H](C)CO)cc(-c2ccc(C)cn2)c1 (stereo partly drawn) [Compound 17]", "experimental-value": "4900 nM"}
{"compound": "Cc1ccc(-c2cc(C(=O)NC(C)c3cnccn3)cc(N3C(=O)OC[C@@H]3C(C)C)c2)cc1 (stereo partly drawn) [Compound 45]", "experimental-value": "7590 nM"}
{"compound": "Cc1ccc(-c2cc(C(=O)N[C@@H](C)CO)cc(N3C(=O)OC[C@H]3C(C)C)c2)nc1 [Compound 9]", "experimental-value": "195 nM"}
{"compound": "COC[C@@H](C)NC(=O)c1cc(-c2ccc(C)cn2)cc(N2C(=O)OC[C@H]2C(C)C)c1 [Compound 7]", "experimental-value": "562 nM"}

# ---- query compound ----
**Q:** Name the reported Ki value associated with the compound Cc1ccc(-c2cc(C(=O)NCc3cnc(C)cn3)cc(-n3c(=O)oc4ccccc43)c2)cc1 [Compound 51]
**A:** 31.6 nM

---

target-under-test: human P2X2/3 receptor (Homo sapiens, UniProt P56373+Q9UBL9)
Construct: expressed in transfected cells; host or cells: CHO-K1
assay-info: P2X2/3 FLIPR (Fluorometric Imaging Plate Reader) assay
Format: cell-based
measurement-conditions: CHO-K1 cells transfected with human P2X2/3; agonist α,β-meATP 5 μM; FLIPR calcium fluorescence; read-out: pKi P2X2/3 (converted)
value-type: Ki

Solved entries:
{"molecule": "Cc1ccc(-c2cc(C(=O)NCc3cnc(C)cn3)cc(-n3c(=O)oc4ccccc43)c2)nc1", "experimental-value": "28.8 nM"}
{"molecule": "CCC1COC(=O)N1c1cc(C(=O)NCc2cnc(C)cn2)cc(-c2ccc(C)cn2)c1 (centres unmarked)", "experimental-value": "66.1 nM"}
{"molecule": "Cc1ccc(-c2cc(C(=O)NC(C)c3cnccn3)cc(-n3c(=O)[nH]c4ccccc43)c2)nc1 (centres unmarked)", "experimental-value": "191 nM"}
{"molecule": "Cc1ccc(-c2cc(C(=O)NC(C)c3cnccn3)cc(N3C(=O)Cc4ccccc43)c2)nc1 (centres unmarked)", "experimental-value": "117 nM"}
{"molecule": "Cc1ccc(-c2cc(C(=O)NCc3cnc(C)cn3)cc(N3C(=O)OC[C@H]3C(C)C)c2)cc1", "experimental-value": "38 nM"}

Provide Ki for all items below, preserving their order.
1. Cc1ccc(-c2cc(C(=O)N[C@@H](C)CO)cc(N3C(=O)OC[C@H]3C(C)C)c2)c(F)c1
2. Cc1ccc(-c2cc(C(=O)NC3CC3)cc(N3C(=O)OC[C@H]3C(C)C)c2)c(F)c1
3. Cc1ccc(-c2cc(C(=O)NCc3cccnn3)cc(-n3c(=O)oc4ccccc43)c2)nc1

**A:**
1: 93.3 nM; 2: 123 nM; 3: 263 nM

---

target-under-test: rat P2X3 receptor (Rattus norvegicus)
Construct: expressed in transfected cells; host or cells: CHO-K1
Sequence (P49654 whole entry): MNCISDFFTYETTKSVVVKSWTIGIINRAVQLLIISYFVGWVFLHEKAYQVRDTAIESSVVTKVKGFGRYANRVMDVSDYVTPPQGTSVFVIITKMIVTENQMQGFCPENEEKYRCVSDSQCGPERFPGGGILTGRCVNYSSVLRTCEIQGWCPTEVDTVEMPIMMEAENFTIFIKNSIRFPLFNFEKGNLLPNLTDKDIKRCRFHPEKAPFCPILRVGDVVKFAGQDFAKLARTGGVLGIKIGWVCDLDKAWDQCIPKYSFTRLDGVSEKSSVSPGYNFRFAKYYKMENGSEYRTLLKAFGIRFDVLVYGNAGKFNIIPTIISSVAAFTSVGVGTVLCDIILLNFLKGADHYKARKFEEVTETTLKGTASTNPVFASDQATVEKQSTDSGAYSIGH
assay-info: P2X3 FLIPR (Fluorometric Imaging Plate Reader) assay
Assay type: cell-based
measurement-conditions: CHO-K1 cells transfected with rat P2X3; agonist α,β-meATP 1 μM; FLIPR calcium fluorescence; read-out: pKi P2X3 (converted)
value-type: Ki (nM)
Give bare numbers, in nM.

{"molecule": "Cc1ccc(-c2cc(C(=O)NC3CC3)cc(N3C(=O)OC[C@@H]3C(C)C)c2)cc1 [Compound 42]", "target-under-test": "rat P2X3 receptor (Rattus norvegicus)", "display-unit": "nM", "Ki": 1480}
{"molecule": "Cc1ccc(-c2cc(C(=O)NC(C)c3cnccn3)cc(N3C(=O)CCC3C)c2)nc1 (stereo not shown) [Compound 27]", "target-under-test": "rat P2X3 receptor (Rattus norvegicus)", "display-unit": "nM", "Ki": 38.9}
{"molecule": "Cc1ccc(-c2cc(C(=O)NC3CC3)cc(N3C(=O)OC[C@H]3C(C)C)c2)c(F)c1 [Compound 49]", "target-under-test": "rat P2X3 receptor (Rattus norvegicus)", "display-unit": "nM", "Ki": 8.91}

**Q:** Given the entry Cc1ccc(-c2cc(C(=O)NC(C)c3cnccn3)cc(N3C(=O)Cc4ccccc43)c2)nc1 (stereo not shown) [Compound 6] , report its measured Ki.
**A:** 7.41

---

target-under-test: human P2X2/3 receptor (Homo sapiens, UniProt P56373+Q9UBL9)
Construct: expressed in transfected cells; host or cells: CHO-K1
assay-info: P2X2/3 FLIPR (Fluorometric Imaging Plate Reader) assay
Type: cell-based
measurement-conditions: CHO-K1 cells transfected with human P2X2/3; agonist α,β-meATP 5 μM; FLIPR calcium fluorescence; read-out: pKi P2X2/3 (converted)
Mark yes (1) only for Ki values smaller than 90 nM; exact matches and larger values are no (0).

Example results:
{"compound": "Cc1ccc(-c2cc(C(=O)NCc3cnc(C)nc3)cc(-n3c(=O)oc4ccccc43)c2)nc1 [Compound 33]", "answer-label": "yes (1)"}
{"compound": "Cc1ccc(-c2cc(C(=O)N[C@@H](C)CO)cc(-n3c(=O)oc4ccccc43)c2)nc1 [Compound 3]", "answer-label": "no (0)"}
{"compound": "Cc1ccc(-c2cc(C(=O)NCc3cncnc3)cc(-n3c(=O)oc4ccccc43)c2)nc1 [Compound 12]", "answer-label": "no (0)"}
{"compound": "Cc1ccc(-c2cc(C(=O)NC(C)c3cnccn3)cc(N3C(=O)OC[C@H]3C(C)C)c2)c(F)c1 (some centres unmarked) [Compound 47]", "answer-label": "yes (1)"}
{"compound": "Cc1ccc(-c2cc(C(=O)NCc3ccc(C)nn3)cc(-n3c(=O)oc4ccccc43)c2)nc1 [Compound 13]", "answer-label": "yes (1)"}
{"compound": "Cc1ccc(-c2cc(C(=O)NC(C)c3cnccn3)cc(N3C(=O)OC[C@H]3C(C)C)c2)nc1 (some centres unmarked) [Compound 10]", "answer-label": "yes (1)"}

**Q:** Is it true that Ki reported for CCC1COC(=O)N1c1cc(C(=O)NC(C)c2cnccn2)cc(-c2ccc(C)cn2)c1 (centres unmarked) [Compound 18] is less than 90 nM?
**A:** no (0)

The measured values listed here are drawn from patent US8093275B2.
